FYI, the data here is from ChEMBL document CHEMBL3046483.

# Tested on: Dinebra chinensis
# Assay explanation: Herbicidal activity against Dinebra chinensis assessed as inhibitory rate of fresh weight gain at 7.5 g/hm'2 relative to control
# Type: functional
Reported inhibition (INH) by item:
Please state the number and follow it with the unit.

In the examples that follow, each entry is paired with its recorded inhibition (INH).
> print(dat)
                         molecule  observed
1   Cc1ccc(/C=C/C(=O)c2occc2O)cc1     47.8%
2      O=C(/C=C/c1ccccc1)c1occc1O     31.3%
3  O=C(/C=C/c1ccc(Br)cc1)c1occc1O     66.7%
4       O=C(/C=C/c1ccco1)c1occc1O     56.1%
5  COc1ccc(/C=C/C(=O)c2occc2O)cc1     60.4%

Can you look up the measured inhibition (INH) of "O=C(/C=C/c1cccc([N+](=O)[O-])c1)c1occc1O" for me?
63.1%

Can you look up the measured inhibition (INH) of "O=C(/C=C/c1ccc(F)cc1)c1occc1O" for me?
19%

Can you look up the measured inhibition (INH) of "O=C(/C=C/c1ccc2ccccc2c1)c1occc1O" for me?
55.9%

Can you look up the measured inhibition (INH) of COC(=O)[C@@H](C)Oc1ccc(Oc2ncc(C(F)(F)F)cc2Cl)cc1 [HALOXYFOP-P-METHYL] for me?
100%

Can you look up the measured inhibition (INH) of "N#Cc1cccc(/C=C/C(=O)c2occc2O)c1" for me?
12.4%

Can you look up the measured inhibition (INH) of "O=C(/C=C/c1ccc(Cl)cc1Cl)c1occc1O" for me?
57.1%

Can you look up the measured inhibition (INH) of "O=C(/C=C/c1ccc(Cl)cc1)c1occc1O" for me?
52.6%

Can you look up the measured inhibition (INH) of "O=C(/C=C/c1ccccn1)c1occc1O" for me?
37.4%

* * *

# System: Amaranthus tricolor
# Assay explanation: Herbicidal activity against Amaranthus tricolor assessed as inhibitory rate of seedling height at 7.5 g/hm'2 relative to control
# Type: functional
Reported inhibition (INH) by item:
Supply the numeric figure in %, leaving out any unit text.

In the examples that follow, each entry is paired with its recorded inhibition (INH).
> print(dat)
                       input.smiles      readout.name  observed
1         O=C(/C=C/c1ccco1)c1occc1O  inhibition (INH)      12.5
2  O=C(/C=C/c1ccc(Cl)cc1Cl)c1occc1O  inhibition (INH)      18.8
3   N#Cc1cccc(/C=C/C(=O)c2occc2O)c1  inhibition (INH)      37.5
4        O=C(/C=C/c1ccccc1)c1occc1O  inhibition (INH)      18.8
5    COc1ccc(/C=C/C(=O)c2occc2O)cc1  inhibition (INH)      37.5
6    O=C(/C=C/c1ccc(Cl)cc1)c1occc1O  inhibition (INH)      37.5

Can you look up the measured inhibition (INH) of "O=C(/C=C/c1ccc(Br)cc1)c1occc1O" for me?
37.5

* * *

# System: Sorghum bicolor
# Assay explanation: Herbicidal activity against Sorghum bicolor assessed as inhibitory rate of fresh weight gain at 7.5 g/hm'2 relative to control
# Assay type: functional
Tag: condition met if measured inhibition (INH) is not below 20%, condition not met if it is.

As a guide, the following entries are already answered.
> print(dat)
                 input.smiles        group.label
1  O=C(/C=C/c1ccccn1)c1occc1O  condition not met
2  O=C(/C=C/c1ccccc1)c1occc1O      condition met

Does "Cc1ccc(/C=C/C(=O)c2occc2O)cc1" have a reported inhibition (INH) of at least 20%?
condition met

Does "COC(=O)[C@@H](C)Oc1ccc(Oc2ncc(C(F)(F)F)cc2Cl)cc1" have a reported inhibition (INH) of at least 20%?
condition met

Does "O=C(/C=C/c1ccco1)c1occc1O" have a reported inhibition (INH) of at least 20%?
condition not met

Does "N#Cc1cccc(/C=C/C(=O)c2occc2O)c1" have a reported inhibition (INH) of at least 20%?
condition met

* * *

# System: Brassica rapa subsp. oleifera
# Assay explanation: Herbicidal activity against Brassica rapa subsp. oleifera assessed as inhibitory rate of seedling height at 7.5 g/hm'2 relative to control
# Assay type: functional
Tag: 1.0 if measured inhibition (INH) is not below 50%, 0.0 if it is.

> print(dat)
                       input.smiles  group.label
1    O=C(/C=C/c1ccc(Br)cc1)c1occc1O          1.0
2    O=C(/C=C/c1ccc(Cl)cc1)c1occc1O          1.0
3        O=C(/C=C/c1ccccc1)c1occc1O          0.0
4   N#Cc1cccc(/C=C/C(=O)c2occc2O)c1          0.0
5     O=C(/C=C/c1ccc(F)cc1)c1occc1O          0.0
6  O=C(/C=C/c1ccc(Cl)cc1Cl)c1occc1O          0.0

Does "O=C(/C=C/c1ccccn1)c1occc1O" have a reported inhibition (INH) of at least 50%?
1.0

Does "O=C(/C=C/c1cccc([N+](=O)[O-])c1)c1occc1O" have a reported inhibition (INH) of at least 50%?
1.0

Does "COc1ccc(/C=C/C(=O)c2occc2O)cc1" have a reported inhibition (INH) of at least 50%?
0.0

Does "COC(=O)[C@@H](C)Oc1ccc(Oc2ncc(C(F)(F)F)cc2Cl)cc1" have a reported inhibition (INH) of at least 50%?
0.0

Does "O=C(/C=C/c1ccco1)c1occc1O" have a reported inhibition (INH) of at least 50%?
0.0

Does "Cc1ccc(/C=C/C(=O)c2occc2O)cc1" have a reported inhibition (INH) of at least 50%?
0.0

Does "O=C(/C=C/c1ccc2ccccc2c1)c1occc1O" have a reported inhibition (INH) of at least 50%?
1.0
